Please provide measured switch fluorescence ratio for the entries that follow.
system: ATP; assay: switch fluorescence ratio, 500 uM ATP over buffer (Cy3 cluster intensity, sum of 5 cycles each) (fold (ratio)); higher = stronger signal-on switching upon ATP binding; sequences stand for … in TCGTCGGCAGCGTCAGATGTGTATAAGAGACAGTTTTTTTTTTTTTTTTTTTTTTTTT…TC; settings: aptamer strand: ATP DNA aptamer (quencher-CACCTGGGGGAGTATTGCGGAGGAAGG + anchor), 100 nM annealed; ATP concentration: 500 uM;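 also: ATP exposure 15 min at 22 °C before imaging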
Answers are plain numbers.

Take a look at these entries with their results.
Exercise: State its switch fluorescence ratio for this sequence: `TGGGTTTCTA`
Solution: 0.964

Exercise: Indicate the recorded switch fluorescence ratio value for this sequence: `GGTATTGAGG`
Solution: 0.987

Exercise: Note down switch fluorescence ratio recorded for `CAGGCAGGAC`
Solution: 2.24

Exercise: Item `TTTTCCGACA` : provide switch fluorescence ratio
Solution: 2.28

Exercise: Indicate its recorded switch fluorescence ratio; the sequence in question is `GAGGTTAGGT`
Solution: 0.981

Exercise: Provide switch fluorescence ratio value for the following sequence: `GAATGATGGG`
Solution: 0.987

Provide switch fluorescence ratio values for the following items, in order.
1. TGGGGGGTGA
2. GGGTTGGTCA
3. TGGGGTTGTC
4. CCAGGTGGGA
5. GTTTGTGTAC

Solution:
1. 0.997
2. 0.994
3. 0.993
4. 3.53
5. 1.11
